- subjectOfTest: γ-GTP derived from bovine kidney (Bos taurus, UniProt G3N2D8)
- Construct: γ-GTP derived from porcine kidney or bovine kidney; from tissue; host or cells: bovine kidney
- Sequence (G3N2D8 1-379 limits assumed): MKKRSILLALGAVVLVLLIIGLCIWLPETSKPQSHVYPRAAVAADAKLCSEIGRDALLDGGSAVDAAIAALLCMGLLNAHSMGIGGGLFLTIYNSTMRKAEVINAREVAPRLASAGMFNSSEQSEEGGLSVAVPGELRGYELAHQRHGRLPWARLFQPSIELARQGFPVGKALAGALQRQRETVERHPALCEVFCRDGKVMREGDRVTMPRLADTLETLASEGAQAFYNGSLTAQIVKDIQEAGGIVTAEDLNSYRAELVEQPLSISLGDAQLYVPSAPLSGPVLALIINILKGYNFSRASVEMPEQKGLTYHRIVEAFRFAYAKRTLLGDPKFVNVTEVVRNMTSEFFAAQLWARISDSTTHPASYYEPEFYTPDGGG
- Sequence (G3N2D8 380-568 limits assumed): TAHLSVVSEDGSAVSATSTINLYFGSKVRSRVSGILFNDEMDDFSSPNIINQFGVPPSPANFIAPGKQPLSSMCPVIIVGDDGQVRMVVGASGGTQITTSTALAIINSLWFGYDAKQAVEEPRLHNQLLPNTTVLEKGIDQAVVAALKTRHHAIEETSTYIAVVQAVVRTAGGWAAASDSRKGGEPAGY
- measurementNotes: Measurement of γ-GTP activity with the substrate, bovine sample (rate assay, 410 nm)
- Format: biochemical
- assayConditions: relative to Comparative Example 1 taken as 100, 37° C., 5 min
Measured relative γ-GTP activity value, bovine sample values are reported for all entries that follow.
measuredQuantity: relative γ-GTP activity value, bovine sample

molecule	valueReported
N[C@@H](CCC(=O)Nc1ccc([N+](=O)[O-])c(CCO)c1)C(=O)O	85
N[C@@H](CCC(=O)Nc1ccc([N+](=O)[O-])c(CO)c1)C(=O)O	151
N[C@@H](CCC(=O)Nc1ccc([N+](=O)[O-])cc1)C(=O)O [γ-L-glutamyl-p-nitroanilide, reference compound]	100
N[C@@H](CCC(=O)Nc1ccc([N+](=O)[O-])c(C(=O)O)c1)C(=O)O [γ-L-glutamyl-3-carboxy-4-nitroanilide, reference compound]	94

----------
relative γ-GTP activity value, porcine sample values by entry
- subjectOfTest: γ-GTP derived from porcine kidney (Sus scrofa, UniProt P20735)
- Construct: γ-GTP derived from porcine kidney or bovine kidney; from tissue; host or cells: porcine kidney
- Sequence (P20735 1-379 limits assumed): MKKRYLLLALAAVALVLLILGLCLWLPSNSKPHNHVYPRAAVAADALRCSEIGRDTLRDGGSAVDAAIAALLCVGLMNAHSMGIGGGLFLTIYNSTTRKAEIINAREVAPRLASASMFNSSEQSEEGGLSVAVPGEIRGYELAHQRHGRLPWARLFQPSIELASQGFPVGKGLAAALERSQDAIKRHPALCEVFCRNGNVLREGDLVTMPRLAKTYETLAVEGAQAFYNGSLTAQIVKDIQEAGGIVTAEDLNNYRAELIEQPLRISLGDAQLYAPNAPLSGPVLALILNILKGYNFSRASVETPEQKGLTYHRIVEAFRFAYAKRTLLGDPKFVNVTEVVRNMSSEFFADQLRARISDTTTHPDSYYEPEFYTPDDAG
- Sequence (P20735 380-568 limits assumed): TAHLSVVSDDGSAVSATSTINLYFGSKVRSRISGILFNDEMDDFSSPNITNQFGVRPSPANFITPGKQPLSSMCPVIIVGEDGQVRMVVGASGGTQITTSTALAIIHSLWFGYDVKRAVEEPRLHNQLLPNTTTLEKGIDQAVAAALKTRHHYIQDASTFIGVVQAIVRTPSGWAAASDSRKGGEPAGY
- measurementNotes: Measurement of γ-GTP activity with the substrate, porcine sample (rate assay, 410 nm)
- Format: biochemical
- assayConditions: relative to Comparative Example 1 taken as 100, 37° C., 5 min
measuredQuantity: relative γ-GTP activity value, porcine sample

molecule	valueReported
N[C@@H](CCC(=O)Nc1ccc([N+](=O)[O-])c(CO)c1)C(=O)O	139
N[C@@H](CCC(=O)Nc1ccc([N+](=O)[O-])c(C(=O)O)c1)C(=O)O [γ-L-glutamyl-3-carboxy-4-nitroanilide, reference compound]	127
N[C@@H](CCC(=O)Nc1ccc([N+](=O)[O-])cc1)C(=O)O [γ-L-glutamyl-p-nitroanilide, reference compound]	100
N[C@@H](CCC(=O)Nc1ccc([N+](=O)[O-])c(CCO)c1)C(=O)O	87
